molecular target: BuChE (E.C. 3.1.1.8) (Equus caballus, UniProt P81908); construct: purchased Sigma-Aldrich; host or cells: equine serum (natural source); test: biochemical; details: Ellman's method, equine serum BuChE, mean ± SD
Sequence (P81908 whole entry): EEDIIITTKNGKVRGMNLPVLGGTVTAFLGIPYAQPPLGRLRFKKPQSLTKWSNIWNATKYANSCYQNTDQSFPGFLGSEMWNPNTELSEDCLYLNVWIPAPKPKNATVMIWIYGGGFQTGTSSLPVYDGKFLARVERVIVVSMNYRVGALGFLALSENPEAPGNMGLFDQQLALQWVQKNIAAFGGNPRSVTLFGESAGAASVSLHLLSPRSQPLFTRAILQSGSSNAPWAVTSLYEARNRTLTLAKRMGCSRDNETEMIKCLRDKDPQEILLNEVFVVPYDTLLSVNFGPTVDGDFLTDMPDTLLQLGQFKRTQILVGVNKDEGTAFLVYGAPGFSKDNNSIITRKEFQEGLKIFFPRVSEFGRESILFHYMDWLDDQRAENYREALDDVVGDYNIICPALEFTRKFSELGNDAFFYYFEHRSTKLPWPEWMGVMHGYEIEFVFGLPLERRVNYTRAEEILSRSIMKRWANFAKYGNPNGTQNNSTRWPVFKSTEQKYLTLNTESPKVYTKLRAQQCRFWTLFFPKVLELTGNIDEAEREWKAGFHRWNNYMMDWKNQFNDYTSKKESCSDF
assay_metric: IC50 (µM)
Response body: numeric value in µM, unit text excluded.

>>> result("Cc1ccc(CN2CCC(c3nc(-c4ccc(C)cc4)no3)CC2)cc1 [6r]")
62.8

Challenge: Find IC50 (BuChE (E.C. 3.1.1.8) (Equus caballus, UniProt P81908)) for the entry Fc1ccc(-c2noc(C3CCN(Cc4ccccc4)CC3)n2)cc1 [6d]
Response given: 24.8

----------
Target: BuChE (E.C. 3.1.1.8) (Equus caballus)
Construct: purchased Sigma-Aldrich; host or cells: equine serum (natural source)
Assay: biochemical
Settings: Ellman's method, equine serum BuChE, mean ± SD
Method: The inhibitory activity of the designed compounds against BuChE and AChE was evaluated using Ellman's method. […] As well, the IC50 values were expressed as mean ± SD. The percentage of enzyme's inhibition was calculated by comparing with a blank sample (100 % activity). […]
assay_metric: IC50

Challenge: Given the molecule Fc1ccc(-c2noc(C3CCN(Cc4ccc(Cl)cc4)CC3)n2)cc1 , what is its reported IC50?
Response given: > 100 µM

Challenge: Param item = Clc1ccc(-c2noc(C3CCN(Cc4ccccc4Cl)CC3)n2)cc1 ; retrieve measured IC50.
Response given: 81.2 µM

Challenge: Give its IC50 value. Item: Fc1ccc(CN2CCC(c3nc(-c4ccc(F)cc4)no3)CC2)cc1
Response given: > 100 µM

Challenge: Param item = Cc1ccc(CN2CCC(c3nc(-c4ccccc4)no3)CC2)cc1 ; retrieve measured IC50.
Response given: > 100 µM

Challenge: # query: IC50 of entry Fc1ccc(CN2CCC(c3nc(-c4ccccc4)no3)CC2)cc1
Response given: > 100 µM

----------
Recorded IC50 for the following compounds
target: BuChE (E.C. 3.1.1.8) (Equus caballus); construct: purchased Sigma-Aldrich; host or cells: equine serum (natural source); assay: biochemical; settings: Ellman's method, equine serum BuChE, mean ± SD
The figure you give is taken to be in µM; do not add the unit.

Challenge: GET /values?readout=IC50&item= c1ccc(CN2CCC(c3nc(-c4ccccc4)no3)CC2)cc1
Response given: 14.2

Challenge: Find the recorded IC50 belonging to Cc1ccc(-c2noc(C3CCN(Cc4ccc(F)cc4)CC3)n2)cc1 and report it.
Response given: 50.7

Challenge: # lookup: IC50 of Cc1ccc(-c2noc(C3CCN(Cc4ccc(Cl)cc4)CC3)n2)cc1
Response given: 50.3

Challenge: Suppose we examine the compound Cc1ccc(-c2noc(C3CCN(Cc4ccccc4)CC3)n2)cc1 ; what IC50 value has been reported?
Response given: 9.81

Challenge: Give its IC50 value. Item: Cc1ccc(-c2noc(C3CCN(Cc4ccccc4Cl)CC3)n2)cc1
Response given: 5.07

----------
Molecular target: BuChE (E.C. 3.1.1.8) (Equus caballus)
Construct: purchased Sigma-Aldrich; host or cells: equine serum (natural source)
Experiment: biochemical
Conditions: Ellman's method, equine serum BuChE, mean ± SD
Protocol: The inhibitory activity of the designed compounds against BuChE and AChE was evaluated using Ellman's method. […] As well, the IC50 values were expressed as mean ± SD. The percentage of enzyme's inhibition was calculated by comparing with a blank sample (100 % activity). […]
assay_metric: IC50

>>> result("Cc1ccc(CN2CCC(c3nc(-c4ccc(Cl)cc4)no3)CC2)cc1 [6s]")
"> 100 µM"

Challenge: // IC50 lookup, key: Fc1ccc(CN2CCC(c3nc(-c4ccc(Cl)cc4)no3)CC2)cc1 [6g]
Response given: > 100 µM

Challenge: Entry Fc1ccc(-c2noc(C3CCN(Cc4ccccc4Cl)CC3)n2)cc1 [6p] has what IC50?
Response given: > 100 µM
